The measured values listed here are drawn from the supplement of paper PMC10065799.

Parameter: phosphorylation enrichment. Scope: all listed entries.
# target.or.test.system: EPHB2 (UniProt P29323)
# Sequence (P29323 whole entry, looked up): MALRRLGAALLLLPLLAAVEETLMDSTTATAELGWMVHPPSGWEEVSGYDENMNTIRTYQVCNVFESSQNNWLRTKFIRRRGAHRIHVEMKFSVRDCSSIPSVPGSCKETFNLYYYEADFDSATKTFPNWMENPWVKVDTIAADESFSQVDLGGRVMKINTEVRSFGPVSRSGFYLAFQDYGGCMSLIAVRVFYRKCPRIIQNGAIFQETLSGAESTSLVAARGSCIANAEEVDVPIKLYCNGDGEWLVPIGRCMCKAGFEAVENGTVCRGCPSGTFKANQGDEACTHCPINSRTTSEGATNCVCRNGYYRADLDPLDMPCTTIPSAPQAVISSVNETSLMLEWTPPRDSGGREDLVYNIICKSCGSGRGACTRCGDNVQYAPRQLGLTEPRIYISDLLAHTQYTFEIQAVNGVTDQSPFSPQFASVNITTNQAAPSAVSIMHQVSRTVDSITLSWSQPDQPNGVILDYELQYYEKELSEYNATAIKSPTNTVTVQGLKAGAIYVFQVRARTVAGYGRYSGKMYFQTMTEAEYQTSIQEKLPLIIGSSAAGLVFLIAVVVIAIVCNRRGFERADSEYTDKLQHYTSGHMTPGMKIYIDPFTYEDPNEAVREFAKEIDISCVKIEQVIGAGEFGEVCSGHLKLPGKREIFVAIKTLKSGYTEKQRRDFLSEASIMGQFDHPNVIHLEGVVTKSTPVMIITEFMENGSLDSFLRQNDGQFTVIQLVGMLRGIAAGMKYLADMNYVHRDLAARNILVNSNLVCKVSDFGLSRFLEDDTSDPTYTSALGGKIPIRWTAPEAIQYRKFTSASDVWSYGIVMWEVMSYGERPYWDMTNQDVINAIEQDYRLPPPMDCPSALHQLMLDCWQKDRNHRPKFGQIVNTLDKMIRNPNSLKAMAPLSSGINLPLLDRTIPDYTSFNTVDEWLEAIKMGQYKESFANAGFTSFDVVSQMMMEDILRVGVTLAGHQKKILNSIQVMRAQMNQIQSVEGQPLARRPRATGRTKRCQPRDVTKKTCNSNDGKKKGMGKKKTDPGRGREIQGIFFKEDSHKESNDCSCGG
# method.description: phosphorylation enrichment, bacterial display (enrichment ratio); higher = better substrate or ligand; peptides without Tyr show the background
API note: the answer field is a bare number with no unit suffix.

In the examples that follow, each entry is paired with its recorded phosphorylation enrichment.
input.sequence	target.or.test.system	phosphorylation enrichment
TTPGPYRSIYF [MPG_Y71]	EPHB2 (UniProt P29323)	0.278
EKLIQYCQSKS [AKR1B1_Y199_G204S]	EPHB2 (UniProt P29323)	0.588
GDNNIYVTKII [DLG1_Y349_S347N]	EPHB2 (UniProt P29323)	0.556

q: Report its phosphorylation enrichment with EPHB2 (UniProt P29323) as the test system: RHPLDYLRQFP [NARS2_Y138_E137D_YF]
a: 0.583

q: Report its phosphorylation enrichment with EPHB2 (UniProt P29323) as the test system: GRTNIYNNKKD [SLC26A3_Y520_K521N]
a: 0.339

q: Report its phosphorylation enrichment with EPHB2 (UniProt P29323) as the test system: IHETTYNSIKK [ACTA1_Y281_M285K]
a: 0.403

----------
# target.or.test.system: c-Src SH2
# method.description: SH2 binding enrichment of the phosphorylated peptide, bacterial display (enrichment ratio); higher = better substrate or ligand; peptides without Tyr show the background
Parameter threshold = 0.5. Response is Satisfied when SH2 binding enrichment meets or exceeds it, else Not satisfied.

As a guide, the following entries are already answered.
input.sequence	target.or.test.system	class.label
SGADSYEMEED [EGFR_Y316_C311S]	c-Src SH2	Satisfied
ECKASCPGKIT [PRSS3_Y232_Y232C]	c-Src SH2	Not satisfied
YSSLGYPPPEG [ZSWIM4_Y87]	c-Src SH2	Satisfied

q: Given LPHVIYCRLWC [SMAD2_Y128_R133C] , state whether its SH2 binding enrichment is at least 0.5.
a: Satisfied

----------
# target.or.test.system: Hck (UniProt P08631)
# Sequence (P08631 whole entry, looked up): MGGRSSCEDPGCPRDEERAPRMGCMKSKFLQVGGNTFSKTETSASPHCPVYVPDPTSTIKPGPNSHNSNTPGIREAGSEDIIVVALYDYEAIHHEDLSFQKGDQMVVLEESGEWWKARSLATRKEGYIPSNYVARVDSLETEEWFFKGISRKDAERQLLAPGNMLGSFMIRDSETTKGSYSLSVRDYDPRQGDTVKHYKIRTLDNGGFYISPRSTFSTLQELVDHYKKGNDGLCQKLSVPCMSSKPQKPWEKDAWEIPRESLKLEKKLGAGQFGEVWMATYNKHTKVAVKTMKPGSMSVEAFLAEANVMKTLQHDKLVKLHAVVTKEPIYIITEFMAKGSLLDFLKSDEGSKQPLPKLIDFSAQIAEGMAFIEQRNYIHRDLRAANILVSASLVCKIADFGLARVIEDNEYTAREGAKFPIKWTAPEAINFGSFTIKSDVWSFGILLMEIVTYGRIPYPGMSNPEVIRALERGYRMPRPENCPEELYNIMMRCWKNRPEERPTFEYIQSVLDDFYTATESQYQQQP
# method.description: phosphorylation enrichment, bacterial display (enrichment ratio); higher = better substrate or ligand; peptides without Tyr show the background
Parameter: phosphorylation enrichment. Scope: all listed entries.

In the examples that follow, each entry is paired with its recorded phosphorylation enrichment.
input.sequence	phosphorylation enrichment
RFVTRYIFNRE [HLA-DQB1_Y62_YF]	0.655
VNFGAYINDFK [GLB1_Y488_YF]	0.441
PYYTSYPPSPD [GDAP2_Y491]	2.39
NKFTTYLPRLP [C9orf24_Y126_YF]	0.507
PVDGEYFTLQI [TP53_Y327_L323V]	2.38

q: Report phosphorylation enrichment for FQQLFYLLQIN [IQGAP2_Y890_T894I_YF]
a: 0.617

q: Report phosphorylation enrichment for MKKKTYAMGGG [GAN_Y424_I423T]
a: 0.908

q: Report phosphorylation enrichment for IKIMGSSIRTI [IDS_Y490_Y490S]
a: 0.435

q: Report phosphorylation enrichment for EVVGKYSVHNA [MLH1_Y183_R182K]
a: 0.388

----------
# System: Fer (mouse)
# method.description: phosphorylation enrichment, bacterial display (enrichment ratio); higher = better substrate or ligand; peptides without Tyr show the background
Classification by phosphorylation enrichment follows these ranges: lower range (below 0.4), middle range (0.4 to below 0.7), upper range (0.7 or more)

As a guide, the following entries are already answered.
input.sequence	class.label
AFQGKYTPSGQ [ALDOA_Y343_C339Y_YF]	lower range
DRIVNYSRASV [ATP7A_Y1459_I1464V]	middle range
RPASVYTKRCS [CPT2_Y508]	middle range
RVNSAYQEKVS [ACAN_Y100_D102E]	lower range
RKVLVYDKLNV [ROR2_Y624_N620K]	upper range
LHAAAYWNALA [UQCRC2_Y182_R183W]	lower range

q: // return the class label for SMVVPYEPPEV [TP53_Y220_V216M]
a: middle range

q: // return the class label for PSGPMYRGAVP [ASAH1_Y43_T42M]
a: lower range

q: // return the class label for TVVGLYQKSSL [MYH7_Y609]
a: middle range

q: // return the class label for RLSVDCGKKSK [TUBA4A_Y161_Y161C]
a: middle range

q: // return the class label for ADELEYSRTGL [MMUT_Y287_G284E]
a: middle range

q: // return the class label for HVSISYDIPLT [GAB1_Y307_P311L]
a: upper range

q: // return the class label for ADLLDYIKALN [HPRT1_Y81]
a: middle range

q: // return the class label for CKPGFYNLKEK [LAMA1_Y490]
a: middle range

q: // return the class label for GDEVEYMLVSF [GCLC_Y53]
a: upper range

q: // return the class label for PESIMYWKFTT [NTRK3_Y744_R745W]
a: upper range

q: // return the class label for PLQSEYSSIST [ITGB4_Y1760_T1764S]
a: upper range

----------
# target.or.test.system: c-Src SH2;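 also: peptide library displayed on the E. coli surface as eCPX fusions, selected cells deep-sequenced, score is each peptide's frequency after selection divided by its frequency in the input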
# method.description: SH2 binding enrichment of the phosphorylated peptide, bacterial display (enrichment ratio); higher = better substrate or ligand; peptides without Tyr show the background
Parameter threshold = 0.7. Response is T when SH2 binding enrichment meets or exceeds it, else F.

input.sequence	class.label
PYRQWYESHYA [RPS8_Y113]	T
CGTPDYIDPEI [PRKCG_Y521_A523D]	F
PNATLYKMTSI [SERPINA7_Y40_S43T]	F
NHFKIYNPCAE [PTEN_Y68_L70P_YF]	T
IVEYAYNDKAI [PUM3_Y259]	F
STEEQYRIRQV [EFHC1_Y115]	F
FRAPGYREVVI [TNS2_Y673_YF]	F
IDGLEYLHSQG [STK11_Y166]	F
KKRRSYGNSSD [SELENOK_Y52]	F
QFPDVYAREEV [CRX_Y67_YF]	F

q: Given EQPNPYMVLDI [ROCK2_Y1197_S1194P] , state whether its SH2 binding enrichment is at least 0.7.
a: T

q: Given GLAELYEFQKK [CKAP5_Y1854_K1857Q_YF] , state whether its SH2 binding enrichment is at least 0.7.
a: T

q: Given PVDTYYDSTRG [DYNC2H1_Y2231_M2227V] , state whether its SH2 binding enrichment is at least 0.7.
a: T

----------
# target.or.test.system: EPHB2 (UniProt P29323)
# method.description: phosphorylation enrichment, bacterial display (enrichment ratio); higher = better substrate or ligand; peptides without Tyr show the background
reported.property: phosphorylation enrichment
API note: the answer field is a bare number with no unit suffix.

q: Report its phosphorylation enrichment with EPHB2 (UniProt P29323) as the test system: KIITDYFVDMK [MPP4_Y566_V562I_YF]
a: 0.566

q: Report its phosphorylation enrichment with EPHB2 (UniProt P29323) as the test system: LDYNEYVRDLN [HPRT1_Y198_F199V]
a: 0.993

q: Report its phosphorylation enrichment with EPHB2 (UniProt P29323) as the test system: FSDPDYLAAVD [GLB1_Y154_S149F]
a: 0.556

q: Report its phosphorylation enrichment with EPHB2 (UniProt P29323) as the test system: PVRIAYDRPRG [SUGP2_Y985]
a: 0.691

q: Report its phosphorylation enrichment with EPHB2 (UniProt P29323) as the test system: CKPGFYNLKEK [LAMA1_Y490]
a: 0.469

----------
# target.or.test.system: Fyn (UniProt P06241)
# Sequence (P06241 whole entry, looked up): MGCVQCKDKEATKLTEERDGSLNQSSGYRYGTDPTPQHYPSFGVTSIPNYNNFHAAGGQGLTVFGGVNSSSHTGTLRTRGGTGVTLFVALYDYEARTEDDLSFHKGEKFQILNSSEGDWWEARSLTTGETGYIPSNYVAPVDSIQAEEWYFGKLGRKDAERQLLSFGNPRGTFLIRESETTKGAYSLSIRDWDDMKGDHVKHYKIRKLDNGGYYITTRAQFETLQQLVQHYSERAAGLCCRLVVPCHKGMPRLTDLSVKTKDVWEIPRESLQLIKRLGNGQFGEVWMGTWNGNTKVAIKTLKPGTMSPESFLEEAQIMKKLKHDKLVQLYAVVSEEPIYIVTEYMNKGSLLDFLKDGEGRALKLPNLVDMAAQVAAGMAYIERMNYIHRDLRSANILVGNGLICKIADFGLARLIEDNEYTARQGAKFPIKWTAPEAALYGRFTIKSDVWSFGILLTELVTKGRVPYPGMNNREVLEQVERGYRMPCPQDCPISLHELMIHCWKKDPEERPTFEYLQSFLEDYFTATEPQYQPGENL
# method.description: phosphorylation enrichment, bacterial display (enrichment ratio); higher = better substrate or ligand; peptides without Tyr show the background
Parameter: phosphorylation enrichment. Scope: all listed entries.
API note: the answer field is a bare number with no unit suffix.

In the examples that follow, each entry is paired with its recorded phosphorylation enrichment.
input.sequence	target.or.test.system	measured.value
AKNKDYMSFIR [GNE_Y197_I200F]	Fyn (UniProt P06241)	0.61
ESTPLYPMLFG [SCLY_Y280_F276S]	Fyn (UniProt P06241)	0.6
RNFVHYVQGLK [VWF_Y1400_R1399H]	Fyn (UniProt P06241)	0.613
ETKGDYEKILV [ANXA1_Y335]	Fyn (UniProt P06241)	0.506
SQSKGYRPKLF [SIPA1L3_Y1376_G1371S_YF]	Fyn (UniProt P06241)	0.417

q: Report its phosphorylation enrichment with Fyn (UniProt P06241) as the test system: TWSSSYRSDRL [CRYBB1_Y131]
a: 0.456

q: Report its phosphorylation enrichment with Fyn (UniProt P06241) as the test system: LHAAAYWNALA [UQCRC2_Y182_R183W]
a: 0.388

q: Report its phosphorylation enrichment with Fyn (UniProt P06241) as the test system: VDTFWYKFLKR [EPM2A_Y86]
a: 0.406

q: Report its phosphorylation enrichment with Fyn (UniProt P06241) as the test system: WRPFGYPCRRR [BCS1L_Y181_R183C]
a: 0.442

q: Report its phosphorylation enrichment with Fyn (UniProt P06241) as the test system: DESEDYRDTVV [CNNM3_Y456]
a: 0.623
